Test system: TRX-9S-S2 (synthetic construct (Selaginella-type S motif consensus))
Assay: ITC
Settings: HRP: 50 mM Tris pH 8, 150 mM NaCl, 1 mM bME, 50 ug/ml BSA, 3 ug/ml yeast RNA, 0.5% heparin, 2 nM RNA; ITC (25 C) and FP: Tris pH 8, 200 mM KCl, 5% glycerol …
recorded_metric: Kd (µM)
Numbers only, in µM.

For record UUACACGUG [rpoA footprint (ITC)] the listed Kd is 0.048
